Biological target: UniProt Q8NER1
Assay: Inhibition of Ca2+ entry in cells caused by proton, in rat glioma (C6BU1) cells stably expressing human VR1 (Fura 2 fluorescence)
Conditions: inhibition of proton-induced Ca2+ entry
READOUT TYPE: IC50

O=C(Nc1ccc(C(F)(F)F)cc1)c1cccc2c1OC[C@H](CO)N2c1ccccc1Cl; < 100 nM
CCOC(=O)C1CCN(c2ccc(NC(=O)c3cccc4c3OCCN4c3ccc(C)cn3)cc2F)CC1; < 100 nM
COCc1cnc(N2CCOc3c(C(=O)Nc4ccc(C(F)(F)F)cc4)cccc32)c(Cl)c1; < 100 nM

Problem: # input compound: O=C(Nc1ccc(OC(F)F)cc1)c1cccc2c1OCCN2c1ncc(CO)cc1Cl ; wanted: its IC50
Solution: < 100 nM

Problem: # input compound: CC(C)COc1ccc(NC(=O)c2cccc3c2OCCN3c2ncc(CO)cc2Cl)cc1 ; wanted: its IC50
Solution: < 100 nM

Problem: # input compound: O=C(Nc1ccc(Br)c(F)c1)c1cccc2c1OC[C@H](CO)N2c1ncccc1Cl ; wanted: its IC50
Solution: < 100 nM

Problem: # input compound: CC(=O)OCCN(c1ccc(NC(=O)c2cccc3c2OCCN3c2ccc(C)cn2)cc1F)C(C)C ; wanted: its IC50
Solution: < 100 nM

Problem: # input compound: Cc1ccc(N2CCOc3c(C(=O)Nc4ccc5c(c4)N(C)CCC5)cccc32)nc1 ; wanted: its IC50
Solution: < 100 nM

Problem: # input compound: CC(C)(C)c1ccc(NC(=O)c2cccc3c2OCCN3c2cc(Cl)ccn2)cc1 ; wanted: its IC50
Solution: < 100 nM

* * *

Target: human VR1 (Homo sapiens, UniProt Q8NER1)
Sequence (Q8NER1 whole entry): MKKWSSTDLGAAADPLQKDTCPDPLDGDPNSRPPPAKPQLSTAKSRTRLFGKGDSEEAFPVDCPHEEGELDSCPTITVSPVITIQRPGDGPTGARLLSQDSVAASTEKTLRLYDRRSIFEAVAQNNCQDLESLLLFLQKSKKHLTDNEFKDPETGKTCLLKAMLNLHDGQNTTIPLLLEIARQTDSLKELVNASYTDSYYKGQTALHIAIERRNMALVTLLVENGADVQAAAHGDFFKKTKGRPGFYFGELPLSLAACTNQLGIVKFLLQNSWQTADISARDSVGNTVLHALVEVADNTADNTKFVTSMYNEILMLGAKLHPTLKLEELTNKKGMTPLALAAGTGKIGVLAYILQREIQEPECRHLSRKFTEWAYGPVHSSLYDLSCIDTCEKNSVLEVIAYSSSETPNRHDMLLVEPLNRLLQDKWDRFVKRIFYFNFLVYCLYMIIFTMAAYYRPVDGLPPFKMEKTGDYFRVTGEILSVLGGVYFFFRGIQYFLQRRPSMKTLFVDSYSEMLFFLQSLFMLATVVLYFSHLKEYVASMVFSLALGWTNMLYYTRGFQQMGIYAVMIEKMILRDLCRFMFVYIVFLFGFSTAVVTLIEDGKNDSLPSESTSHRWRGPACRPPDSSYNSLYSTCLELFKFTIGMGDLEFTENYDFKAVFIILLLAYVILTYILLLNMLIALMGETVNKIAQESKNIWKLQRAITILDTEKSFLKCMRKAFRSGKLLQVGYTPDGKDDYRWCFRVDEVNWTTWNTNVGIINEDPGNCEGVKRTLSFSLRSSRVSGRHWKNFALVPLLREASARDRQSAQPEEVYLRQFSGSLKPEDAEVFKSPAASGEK
Assay: Inhibition of Ca2+ entry in cells caused by proton, in rat glioma (C6BU1) cells stably expressing human VR1 (Fura 2 fluorescence)
Details: inhibition of proton-induced Ca2+ entry
READOUT TYPE: IC50

Example entries and their recorded answers appear below.
CCOC1CCN(c2ccc(NC(=O)c3cccc4c3OCCN4c3ccc(C)cn3)cc2F)CC1 [Example 1-068]; < 100 nM
Cc1cnc(N2c3cccc(C(=O)Nc4ccc(F)c(C(F)(F)F)c4)c3OC[C@@H]2CO)s1 [Example 6-8]; < 100 nM
CC(C)(C)c1ccc(NC(=O)c2cccc3c2OCCN3c2cccnc2)cc1 [Example 1-061]; 100 to 1000 nM
O=C(Nc1cc(Cl)cc(Cl)c1)c1cccc2c1OCCN2c1ncc(CO)cc1Cl [Example 2-43]; < 100 nM
COc1ccc(N2CCOc3c(C(=O)Nc4ccc(OCC(C)C)cc4)cccc32)cc1 [Example 7-02]; < 100 nM

Problem: # input molecule: CCCOc1ccc(NC(=O)c2cccc3c2OCCN3c2ccc(C)cn2)cc1F [Example 1-085] ; wanted: its IC50
Solution: < 100 nM

Problem: # input molecule: Cc1ccc(N2CCOc3c(C(=O)N[C@H]4CC[C@H](COCC(C)C)CC4)cccc32)nc1 [Example 1-189] ; wanted: its IC50
Solution: < 100 nM

Problem: # input molecule: Cc1ccc(N2c3cccc(C(=O)Nc4ccc(OC(F)(F)F)c(Cl)c4)c3OC[C@@H]2CO)nc1 [Example 4-31] ; wanted: its IC50
Solution: < 100 nM

Problem: # input molecule: O=C(O)c1cnc(N2CCOc3c(C(=O)Nc4ccc(OC(F)(F)F)c(Cl)c4)cccc32)c(Cl)c1 [Example 1-195] ; wanted: its IC50
Solution: 100 to 1000 nM

Problem: # input molecule: CC(=O)c1cc(NC(=O)c2cccc3c2OCCN3c2ccc(C)cn2)ccc1Cl [Example 1-080] ; wanted: its IC50
Solution: < 100 nM
